Target: T1, Furin (recombinant, truncated) (mouse), P23188
T1 chain: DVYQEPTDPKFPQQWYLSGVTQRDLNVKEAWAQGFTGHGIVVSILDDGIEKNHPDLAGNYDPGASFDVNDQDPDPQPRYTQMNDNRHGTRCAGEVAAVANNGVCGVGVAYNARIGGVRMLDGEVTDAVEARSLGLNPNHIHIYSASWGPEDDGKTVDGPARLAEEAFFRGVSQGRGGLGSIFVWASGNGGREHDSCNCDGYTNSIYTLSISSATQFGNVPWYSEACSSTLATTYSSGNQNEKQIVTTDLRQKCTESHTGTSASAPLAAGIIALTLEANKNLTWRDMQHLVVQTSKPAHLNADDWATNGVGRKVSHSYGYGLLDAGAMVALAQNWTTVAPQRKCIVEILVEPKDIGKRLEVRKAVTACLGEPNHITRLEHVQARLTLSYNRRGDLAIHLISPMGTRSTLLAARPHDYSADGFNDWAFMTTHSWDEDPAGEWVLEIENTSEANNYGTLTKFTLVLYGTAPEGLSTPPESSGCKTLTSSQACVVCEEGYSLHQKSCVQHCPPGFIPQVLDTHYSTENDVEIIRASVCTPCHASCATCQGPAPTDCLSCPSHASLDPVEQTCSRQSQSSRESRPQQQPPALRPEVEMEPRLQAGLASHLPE
Settings: modification not given
Measured quantity: Ki (nM)
Please state the figure in nM; there is no need to write the unit.

Look up Ki of RRRRRR [Hexa-L-arginine] and report it.
114
